- experiment summary: folding enthalpy; higher = less favourable; fluorescence melt of hairpins on a sequencing array, two-state fit
- setup conditions: sodium 0.088 M

sequence content | folding enthalpy
GCCAGACGAAAGTCGGC (((.(((....)))))) | -27.6 kcal/mol
CGCGGACAATTCCGCG ((((((....)))))) | -30.5 kcal/mol
GGCATGAAAATGCC (((((....))))) | -26 kcal/mol
GTTCACGAAAGTGTGAAC ((((((....)))..))) | -25.7 kcal/mol
GCATCACGAAAGTGCTGC (((.(((....))).))) | -44 kcal/mol
GTGGACGAAAGTCGGCAC ((((((....)))..))) | -15.5 kcal/mol
GTTGTGGGAAACCGCAAC ((((.((....)).)))) | -43 kcal/mol
GTTGCCGAAAGGCTTAAC ((((((....)))..))) | -8.96 kcal/mol
GTACATGGAAACACGTAC ((((.((....)).)))) | -21.9 kcal/mol
GATCGCGTGGGCGATC ((((((....)))))) | -30.8 kcal/mol
GTGTCAGGAAACTGATAC ((.((((....)))).)) | -29.4 kcal/mol
GATCAAGATTTGATC ((((((...)))))) | -29.6 kcal/mol

====

# folding enthalpy listing for each entry below
- experiment summary: folding enthalpy; higher = less favourable; fluorescence melt of hairpins on a sequencing array, two-state fit
- setup conditions: sodium 0.088 M
observable: folding enthalpy (kcal/mol)

sequence content | reported result
GATCCTAAGAAGGATC ((((((....)))))) | -35.3
GGGTGCGAAAGCAAACCC ((((((....)))..))) | -29.3
GATCGTTCCGACGATC ((((((....)))))) | -40.9
GATCATAGAATGATC ((((((...)))))) | -36
GCTAAGCGAAAGCCTTGC ((.(.((....)).).)) | -13.1
GCGGTCACGAAAGTGCGC (((..(((....)))))) | -29.4
GATCTGTCACCAGATC ((((((....)))))) | -39.4
GCGTAGCGAAAGCTCAGC ((..(((....)))..)) | -10.8
GGATTGGGAAACTAATCC (((((.(....).))))) | -33.9
GGTGTCCCGAAAGGGACC (((..(((....)))))) | -9.51
GTCTTGGGAAACCAGGAC (((.(((....))).))) | -30.3
GATCCGAGAACGGATC ((((((....)))))) | -37.4
GACGGCGAAAGCCCGGTC ((((((....)))..))) | -13.2
GGGGCTGGAAACAGCCTC (.(((((....))))).) | -14.4
GAGACCGAAAGGTTCCTC ((((((....)))..))) | -12.4
GCCATCGGAAACGATGAC (.(((((....))))).) | -16
GCGGAGGGAAACCCCCGC ((((.((....)).)))) | -38.9
GCGGTCTCGAAAGAGCGC (((..(((....)))))) | -38.2
GGTATGGCGAAAGCCACC (((..(((....)))))) | -8.56
GATGACCGAAAGGTATC (((.(((....)))))) | -16.6
GGTCGCGAAAGCGCAACC ((((((....)))..))) | -13.1
GCCACCGGAAACAGTGGC (((((.(....).))))) | -30.7
GCGGTCGAAAGACGACGC ((((((....)))..))) | -37.4
GTTTGCGAAAGCATCAAC ((((((....)))..))) | -8.63
GATCCTTAATAGGATC ((((((....)))))) | -39.1
